Hello, the source for this data is patent US20230414780A1, in case you need it.

ASSAY TARGET: T1, human transferrin receptor (hTfR) fused to EGFP, on CHO cells (human, UniProt P02786 1-760)
T1 construct: whole, on cells; also called human TfR; CHO-hTfR-EGFP; not shown: EGFP from pEGFP-C1 vector, fused to the N-terminal (intracellular) end of hTfR
T1 sequence (P02786 whole entry, the tested form may be a part): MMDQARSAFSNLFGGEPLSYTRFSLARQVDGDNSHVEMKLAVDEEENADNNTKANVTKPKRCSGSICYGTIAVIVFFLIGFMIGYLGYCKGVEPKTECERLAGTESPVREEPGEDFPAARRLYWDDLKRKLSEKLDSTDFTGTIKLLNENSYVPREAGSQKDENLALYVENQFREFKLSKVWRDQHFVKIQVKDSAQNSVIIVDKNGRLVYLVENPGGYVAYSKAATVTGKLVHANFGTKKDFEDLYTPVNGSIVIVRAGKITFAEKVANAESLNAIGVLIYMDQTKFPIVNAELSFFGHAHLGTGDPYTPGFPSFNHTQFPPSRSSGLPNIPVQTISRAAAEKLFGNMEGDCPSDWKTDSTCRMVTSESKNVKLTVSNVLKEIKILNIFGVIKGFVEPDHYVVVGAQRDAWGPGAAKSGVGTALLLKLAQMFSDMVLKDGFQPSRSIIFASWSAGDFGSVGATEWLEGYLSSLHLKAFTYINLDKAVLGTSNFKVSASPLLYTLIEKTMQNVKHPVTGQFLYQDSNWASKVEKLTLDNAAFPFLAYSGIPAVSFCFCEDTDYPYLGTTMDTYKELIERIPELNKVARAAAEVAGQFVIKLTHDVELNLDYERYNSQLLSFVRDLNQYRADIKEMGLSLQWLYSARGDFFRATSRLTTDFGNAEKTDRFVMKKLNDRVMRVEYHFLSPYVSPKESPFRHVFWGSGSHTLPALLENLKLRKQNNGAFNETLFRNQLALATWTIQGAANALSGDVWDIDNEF
ASSAY INFO: apparent Kd, flow cytometry, CHO cells
Please respond with reported Kd for every item in the list.
The answer consists of two parts: a number and, after it, its unit.

For orientation, consider the following solved cases.
* C5^V20 (VHH) VHH: EVQLVESGGGVVQPGGSLKLSCVASGHDFSINFIRWYRQAPGKQREFVAGFTATGNTNYADSMKGRFTISRDNTKNAVYLQIDSLKPEDTAVYYCYMLDKWGQGTQVTVSS | 2.5 nM
* B8^V16 (VHH) VHH: EVQLVESGGGVVQPGGSLRLSCAASGEIFSINFMRWYRQAPGKQREQVAGFTRDGSTNYPDSAKGRFTISRDNAKNTVYLQIDSLKPEDTAVYYCYMLDTWGQGTQVTVSS | 6.2 nM
* B8^V32 (VHH) VHH: EVQLVESGGGVVQPGGSLRLSCAASGEIRSINFMRWYRQAPGKQREWVAGFTRDGSTNYPDSAKGRFTISRDNAKNTVYLQIDSLKPEDTAVYYCYMLDTWGQGTQVTVSS | 7.1 nM

Working through the 5 binders below one at a time, give Kd for each.
1. VHH A15 (C5^V15) (VHH) VHH: EVQLVESGGGVVQPGGSLKLSCVASGTDFSINFIRWYRQAPGKQREFVAGFTATGNTNYADSMKGRFTISRDNTKNAVYLQIDSLKPEDTAVYYCFMLDKWGQGTQVTVSS
2. C5^V30 (VHH) VHH: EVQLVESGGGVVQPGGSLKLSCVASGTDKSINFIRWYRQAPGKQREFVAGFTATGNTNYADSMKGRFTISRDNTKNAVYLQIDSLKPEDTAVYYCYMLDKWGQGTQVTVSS
3. F2a (VHH) VHH: EVQLVESGGGLVQPGESLRLSCTASESISIYGVGWYRQAPGEQRVLVAHLKRNGLTEYKDSVKGRFTISRDNARNTIYLEMKNLKPEDTAIYYCNTALGSVLPWGRGTQVTVSS
4. VHH A9 (C5^V9) (VHH) VHH: EVQLVESGGGVVQPGGSLKLSCVASGTDFSINFIRWYRQAPGKQREFVAGFTATGNTNYADSMKGRFTISRDNTKNAVYLQIDSLKPEDTAVYYCYMLDAWGQGTQVTVSS
5. C5^V13h20 (VHH) VHH: EVQLVESGGGVVQPGGSLRLSCAASGTDFSINFIRWYRQAPGKGLEFVAGFSATGNTNYADSVKGRFTISRDNAKNAVYLQMNSLRPEDTAVYYCYMLDKWGQGTQVTVSS

Out:
3.7 nM
31 nM
2.9 nM
3.4 nM
3.8 nM
